Please provide measured Emax for the entries that follow.
- TARGET_UNDER_TEST: F508delCFTR (Homo sapiens, UniProt P13569, DEL508-508)
- Construct: expressed in transfected cells; host or cells: CFBE41o- human lung-derived epithelial cells (CFBE4lo-F508delCFTR-HRP), doxycycline-inducible
- Sequence (P13569 with tags, fused parts or gaps DEL508-508): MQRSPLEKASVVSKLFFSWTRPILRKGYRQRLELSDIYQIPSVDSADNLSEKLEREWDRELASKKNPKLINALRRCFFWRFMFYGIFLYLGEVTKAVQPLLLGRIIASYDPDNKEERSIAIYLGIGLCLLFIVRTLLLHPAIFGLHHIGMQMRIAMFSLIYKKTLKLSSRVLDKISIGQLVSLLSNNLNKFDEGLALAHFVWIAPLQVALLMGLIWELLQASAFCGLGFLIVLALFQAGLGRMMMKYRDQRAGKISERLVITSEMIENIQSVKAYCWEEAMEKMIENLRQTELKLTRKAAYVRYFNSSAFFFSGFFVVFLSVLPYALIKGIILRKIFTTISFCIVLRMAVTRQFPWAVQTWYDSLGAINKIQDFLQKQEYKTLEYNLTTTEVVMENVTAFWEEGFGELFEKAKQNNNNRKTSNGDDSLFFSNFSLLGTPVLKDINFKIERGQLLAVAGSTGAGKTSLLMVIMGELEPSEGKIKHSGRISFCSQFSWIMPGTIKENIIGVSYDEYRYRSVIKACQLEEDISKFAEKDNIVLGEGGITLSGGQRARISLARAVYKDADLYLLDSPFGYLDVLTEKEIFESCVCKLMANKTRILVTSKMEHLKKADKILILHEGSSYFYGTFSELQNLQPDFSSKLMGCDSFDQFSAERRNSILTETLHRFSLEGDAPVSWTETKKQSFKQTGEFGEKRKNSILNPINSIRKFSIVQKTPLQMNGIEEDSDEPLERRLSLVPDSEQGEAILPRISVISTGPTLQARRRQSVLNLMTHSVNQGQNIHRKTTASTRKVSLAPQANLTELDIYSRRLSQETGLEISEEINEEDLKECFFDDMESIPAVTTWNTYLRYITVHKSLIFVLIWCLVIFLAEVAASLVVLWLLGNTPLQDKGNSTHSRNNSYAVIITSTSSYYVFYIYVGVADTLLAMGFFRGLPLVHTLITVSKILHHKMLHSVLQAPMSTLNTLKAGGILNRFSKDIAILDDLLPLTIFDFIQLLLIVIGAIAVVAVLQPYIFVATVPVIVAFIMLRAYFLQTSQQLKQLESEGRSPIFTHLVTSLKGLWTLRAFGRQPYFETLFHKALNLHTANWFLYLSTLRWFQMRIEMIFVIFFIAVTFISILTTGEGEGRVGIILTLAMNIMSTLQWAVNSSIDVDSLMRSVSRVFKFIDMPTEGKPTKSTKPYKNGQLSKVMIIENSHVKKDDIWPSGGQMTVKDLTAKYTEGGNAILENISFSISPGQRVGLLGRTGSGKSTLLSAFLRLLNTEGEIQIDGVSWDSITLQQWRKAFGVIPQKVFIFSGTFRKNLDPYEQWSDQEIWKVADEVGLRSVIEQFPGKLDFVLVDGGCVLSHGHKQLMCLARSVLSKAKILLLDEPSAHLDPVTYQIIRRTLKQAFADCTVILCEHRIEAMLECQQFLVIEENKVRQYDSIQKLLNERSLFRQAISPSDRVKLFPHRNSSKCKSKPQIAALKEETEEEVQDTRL
- ASSAY_NAME: Cell Surface Expression-Horse Radish Peroxidase (CSE-HRP) Assay;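 further: percent of the 2 µM on-plate positive control corrector response above DMSO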
- Assay type: cell-based
- ASSAY_CONDITIONS: CSE-HRP; without co-corrector; maximum at any tested concentration, normalized to on-plate positive control; read-out: Maximum % activity (without co-corrector)

# input Using the record for COc1ccc(C(F)(F)F)cc1CN[C@@H]1[C@@H](C(C)(C)C)[C@H](C(=O)O)N(C(=O)Cc2ccccc2)[C@@H]1c1ccccc1 (racemic) , report its Emax.
# output < 100%

# input Using the record for "COc1ccc(C(C)(C)C)cc1CN[C@H]1[C@H](C(C)(C)C)[C@@H](C(=O)O)N(C(=O)c2cc(Cl)c(=O)n(C(C)C)c2)[C@H]1c1ccccc1" , report its Emax.
# output < 100%

# input Using the record for "CC(C)OC(=O)N1[C@H](C(=O)O)[C@@H](C(C)(C)C)[C@H](NCC(C)(C)c2ccccc2)[C@@H]1c1ccccc1" , report its Emax.
# output < 100%

# input Using the record for "CC(C)(C)[C@H]1[C@H](NCc2ccc(F)c(Oc3ccccc3)c2)[C@H](c2ccccc2)N(C(=O)C2CCCCC2)[C@@H]1C(=O)O" , report its Emax.
# output < 100%

# input Using the record for COc1cc(Cl)ccc1CN[C@@H]1[C@@H](C(C)(C)C)[C@H](C(=O)O)N(C(=O)C2CCCOC2)[C@@H]1c1ccccc1N(C)C (mixture of isomers) , report its Emax.
# output 100 to 200%

# input Using the record for "COc1ccc(C(C)(C)C)cc1CN[C@H]1[C@H](C(C)(C)C)[C@@H](C(=O)O)N(C(=O)Cc2cccc(C#N)c2)[C@H]1c1ccccc1" , report its Emax.
# output > 200%
